Recorded values, source paper PMC4817131.

# system under test: DNA polymerase alpha catalytic core (p180, hPolα) (Homo sapiens, UniProt P09884 338-1259)
# Sequence (P09884 338-1259): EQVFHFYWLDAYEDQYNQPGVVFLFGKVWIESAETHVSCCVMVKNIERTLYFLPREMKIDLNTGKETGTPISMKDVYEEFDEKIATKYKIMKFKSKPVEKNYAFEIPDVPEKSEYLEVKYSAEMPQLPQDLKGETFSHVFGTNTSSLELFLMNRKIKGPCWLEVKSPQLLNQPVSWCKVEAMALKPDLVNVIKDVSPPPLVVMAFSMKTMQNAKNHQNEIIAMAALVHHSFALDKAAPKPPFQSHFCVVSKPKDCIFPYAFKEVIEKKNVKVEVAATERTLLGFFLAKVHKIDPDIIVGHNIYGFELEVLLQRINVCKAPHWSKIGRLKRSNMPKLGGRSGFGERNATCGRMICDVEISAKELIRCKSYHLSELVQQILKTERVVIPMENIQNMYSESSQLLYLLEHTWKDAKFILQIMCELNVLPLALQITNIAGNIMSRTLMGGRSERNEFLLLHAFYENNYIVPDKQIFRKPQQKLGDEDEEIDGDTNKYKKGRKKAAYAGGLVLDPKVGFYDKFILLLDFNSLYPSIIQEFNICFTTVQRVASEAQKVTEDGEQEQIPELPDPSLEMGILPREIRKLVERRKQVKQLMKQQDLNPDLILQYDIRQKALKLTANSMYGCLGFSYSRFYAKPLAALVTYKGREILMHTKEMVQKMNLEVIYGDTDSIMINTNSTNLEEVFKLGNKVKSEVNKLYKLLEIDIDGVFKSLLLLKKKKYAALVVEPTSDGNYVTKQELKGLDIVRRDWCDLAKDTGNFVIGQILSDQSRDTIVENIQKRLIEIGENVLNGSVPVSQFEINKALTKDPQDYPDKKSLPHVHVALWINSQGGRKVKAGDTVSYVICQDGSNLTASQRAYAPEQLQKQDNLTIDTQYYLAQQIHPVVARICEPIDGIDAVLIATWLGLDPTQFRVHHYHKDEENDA
# procedure text: fluorescence anisotropy; 5 mM MgCl2, no dNTP; 50 mM Bis-Tris pH 6.5, 100 mM NaCl, 5 mM MgCl2, 23 °C; 2 nM labeled duplex, 0.1-16000 nM protein, >30 min
# assay setup: protein: recombinant; tags: N-terminal His6-SUMO (His6-SMT) removed by SUMO protease; label: 5' 6-FAM on template; template 5' overhang 20 nt, one replicative end
pKd: −log10 of the molar value.
readout: pKd

> print(dat)
                                     binder  readout  experimental.result
1  10-nt RNA primer/30-nt DNA template (DNA:RNA) DNA: CTTAGGATGGAGAAAGGTAAGATGAAGCCG RNA: CGGCUUCAUC      pKd                ~6.49

Shifting focus to the binder that follows.
Record request: pKd value, item 10-nt DNA primer/30-nt DNA template (dsDNA) DNA 1: CTTAGGATGGAGAAAGGTAAGATGAAGCCG DNA 2: CGGCTTCATC
~6.37
